Species: Rattus norvegicus
Test: DrugMatrix - Regimen: Daily Repeat
Format: toxicity, organism-based, Sprague-Dawley
Set-up: regimen Daily Repeat, gender Male, age 6-8 weeks
Details: in vivo, po, 0 mg/kg, […], tissue Plasma, route oral GAVAGE, dose level Control, time 14 day, vehicle .5 % CMC
Task for the reader: assign each of the following compounds its reported ALANINE AMINOTRANSFERASE.
Report the figure along with its unit, number first.

Could you share which ALANINE AMINOTRANSFERASE value was measured for `CCOP(=S)(OCC)Oc1nc(Cl)c(Cl)cc1Cl` ? 43 u/L

For `ClC(Cl)Br` , what is its reported ALANINE AMINOTRANSFERASE? 52.33 u/L

// query ALANINE AMINOTRANSFERASE value for entry `ClC(Br)Br` 52.33 u/L

What value of ALANINE AMINOTRANSFERASE has been reported for the following compound? `COc1ccc(C(=O)Nc2c(Cl)c[n+]([O-])cc2Cl)c2ccc(C(F)(F)F)nc12` 36.83 u/L
